From: the supplement of paper PMC10567573

B1: C10orf62 (parent)
chain: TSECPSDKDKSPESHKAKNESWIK

variants of: B1; assay: protein stability index of a GFP-peptide fusion (GPS, HEK-293T) (PSI 1-6); higher = more stable; details: c terminus: a fixed tail appended;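 further: lentivirally expressed fusions sorted by FACS into six bins by GFP to DsRed ratio, PSI derived from sequencing read proportions per bin multiplied by bin number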
Heads up, the class ranges for protein stability index are zone 1 (below 3), zone 2 (3 to below 4), zone 3 (4 or more)

Lab note: which band did TSECISDKDKSPESHKAKNESWIK [P5I] land in?
zone 2

Which of the defined bands does the recorded protein stability index of TSECPSFKDKSPESHKAKNESWIK [D7F] sit within?
zone 1

Please indicate the class for TSECPSDKRKSPESHKAKNESWIK [D9R] based on its protein stability index.
zone 1

# bin lookup: classify TSECPSDKDKSPESHKAKNISWIK [E20I] by its protein stability index
zone 3

Could you place TKECPSDKDKSPESHKAKNESWIK [S2K] in its proper category? Many thanks.
zone 2

Class for TSECPSDKDKSPESHKAKEESWIK [N19E] ?
zone 3
